FYI, the data here is from patent US20050004093A1.

assay overview: in vitro
experimental context: human, plasma
Give half-life at 100 μM for every item shown.
Answers are plain numbers, in h.

{"columns": ["compound", "unit symbol", "half-life at 100 μM"],
 "data": [
  ["CC1(C)[C@H](C(=O)OCOC(=O)OC2CCOCC2)N2C(=O)[C@@H](CO)[C@H]2S1(=O)=O [Prodrug 1]", "h", 0.112]
]}

half-life at 100 μM recorded for this compound, O=C(O)[C@H]1/C(=C/CO)O[C@@H]2CC(=O)N21 [Clavulanate, lithium clavulanate] , is 2.6
